# TARGET ENTITY: T1, human CD38 Fc-fusion aa 45-300 (human, UniProt P28907 45-300)
# T1 construct: Expressed in HEK293 behind a human Vkappa leader, which is left out here; also called CD38-Fc fusion protein; CD38 Fc-Fusion protein
# ASSAY NOTES: SPR (Biacore), Fab format
Listed binders paired with reported pKd
Keep it numeric: pKd is minus log10 of the concentration in mol/L.

1. MOR06197 Fab (Fab, V domains shown, Fab format) VH: QVQLVESGGGLVQPGGSLRLSCAASGFTFSSYYMNWVRQAPGKGLEWVSAISMDGVYKYYADSVKGRFTISRDNSKNTLYLQMNSLRAEDTAVYYCARDLPLVYTGFAYWGQGTLVTVSS VL: DIELTQPPSVSVAPGQTARISCSGDNLRHYYVYWYQQKPGQAPVLVIYGDSKRPSGIPERFSGSNSGNTATLTISGTQAEDEADYYCQTYTGGASLVFGGGTKLTVL    8.32

Data request, read-out pKd, for MOR06183 Fab (Fab, V domains shown, Fab format) VH: QVQLVESGGGLVQPGGSLRLSCAASGFTFSSYYMNWVRQAPGKGLEWVSGINMESTRIYYADSVKGRFTISRDNSKNTLYLQMNSLRAEDTAVYYCARDLPLVYTGFAYWGQGTLVTVSS VL: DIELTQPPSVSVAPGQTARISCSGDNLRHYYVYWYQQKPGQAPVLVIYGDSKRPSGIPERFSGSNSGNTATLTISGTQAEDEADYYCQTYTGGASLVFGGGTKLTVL
7.87

Cited source for all entries: patent US20240309109A1
